# ASSAY: Multi-component pharmacokinetics in rat plasma after oral administration of RB, RPA or RB-RPA extracts (UPLC-HRMS, non-compartmental analysis)
# Type: in vivo, Sprague-Dawley rats
# STATED CONDITIONS: male, Sprague-Dawley, rat, plasma, po, 45 g/kg, rat plasma, oral administration of single extract RPA, mean ± SD, n = 7; read-out: Cmax
PROPERTY: Cmax (ng/mL)

(a) C[C@@]12C[C@@]3(O)O[C@@H](O1)[C@]1(COC(=O)c4ccccc4)[C@H]3C[C@@]12O[C@@H]1O[C@H](CO)[C@@H](O)[C@H](O)[C@H]1O [Paeoniflorin]
(b) COC(=O)c1cc(O)c(O)c(O)c1 [Methyl gallate]
Which entry shows the lesser value of Cmax here, a or b ? Use the label to indicate which entry you chose.
b
(b: 48.6 ng/mL, a: 1780 ng/mL)
